Test system: DU 145 cells
property-label: GI50
Could you kindly put the unit after your number?

Query block: Param readout= GI50; system= DU 145 cells; entry= COC(=O)C(Cc1c[nH]c2ccccc12)NC(=O)C(Cc1c[nH]c2ccccc12)NC(=O)C(OC)C1Cc2cc3cc(OC4CC(OC5CC(O)C(O)C(C)O5)C(O)C(C)O4)c(C)c(O)c3c(O)c2C(=O)C1OC1CC(OC2CC(OC3CC(C)(O)C(O)C(C)O3)C(O)C(C)O2)C(O)C(C)O1 (stereo not shown) ; returns value.
Result block: 246 nM

* * *

Record set of GI50 for target or system ES-2 Ewing sarcoma cells (EWS-FLI1 Type 3).
Provide the reading as a plain figure in nM.

Guide cases for GI50, answers given:
COC(=O)C(Cc1ccccc1)NC(=O)C(Cc1c[nH]c2ccccc12)NC(=O)C(OC)C1Cc2cc3cc(OC4CC(OC5CC(O)C(O)C(C)O5)C(O)C(C)O4)c(C)c(O)c3c(O)c2C(=O)C1OC1CC(OC2CC(OC3CC(C)(O)C(O)C(C)O3)C(O)C(C)O2)C(O)C(C)O1 (stereo not shown)	125
COC(=O)C(Cc1c[nH]c2cc(F)ccc12)NC(=O)C(OC)C1Cc2cc3cc(OC4CC(OC5CC(O)C(O)C(C)O5)C(O)C(C)O4)c(C)c(O)c3c(O)c2C(=O)C1OC1CC(OC2CC(OC3CC(C)(O)C(O)C(C)O3)C(O)C(C)O2)C(O)C(C)O1 (stereo not shown)	3310
C=CCOc1ccc2[nH]cc(CC(NC(=O)C(OC)C3Cc4cc5cc(OC6CC(OC7CC(O)C(O)C(C)O7)C(O)C(C)O6)c(C)c(O)c5c(O)c4C(=O)C3OC3CC(OC4CC(OC5CC(C)(O)C(O)C(C)O5)C(O)C(C)O4)C(O)C(C)O3)C(=O)OC)c2c1 (stereo not shown)	5370

Then there is this molecule:
Query block: Test system ES-2 Ewing sarcoma cells (EWS-FLI1 Type 3); read-out GI50; what value for COC(=O)C(Cc1c[nH]c2ccccc12)NC(=O)C(OC)C1Cc2cc3cc(OC4CC(OC5CC(O)C(O)C(C)O5)C(O)C(C)O4)c(C)c(O)c3c(O)c2C(=O)C1OC1CC(OC2CC(OC3CC(C)(O)C(O)C(C)O3)C(O)C(C)O2)C(O)C(C)O1 (stereo not shown) [MTMSA-Trp (3), Mithramycin SA-Tryptophan, reference compound] ?
Result block: 133
